From: patent US7888380B2

molecular target: CDK2:Cyclin-E (Homo sapiens, UniProt P24941); assay: CDK2 Screening Assay (33P-ATP FlashPlate); type: biochemical; settings: 10 μM ATP; >10 or >100 = less than 50% inhibition at highest concentration tested
Value Kind: IC50 (µM)

See these solved cases before continuing.
Molecule | IC50 (µM)
CN(C)CC(=O)NS(=O)(=O)c1ccc(Nc2nc(N)n(C(=O)c3c(F)cccc3F)n2)cc1 | 0.32
CCCCC(=O)NS(=O)(=O)c1ccc(Nc2nc(N)n(C(=O)c3c(F)cccc3F)n2)cc1 | 0.47

A. Nc1nc(Nc2ccc(S(=O)(=O)NC(=O)CCN3CCOCC3)cc2)nn1C(=O)c1c(F)cccc1F
B. COCCOCCOCC(=O)Nc1nc(Nc2ccc(S(N)(=O)=O)cc2)nn1C(=O)c1c(F)cccc1F
Input line: Just curious, which one has the larger IC50 reading, A or B ? Pick one; state its label.
Output line: B
(B: 0.3 µM, A: 0.12 µM)

1. Nc1nc(Nc2ccc(S(=O)(=O)NC(=O)COCCOCCOCC(=O)O)cc2)nn1C(=O)c1c(F)cccc1F
2. CCCC(=O)NS(=O)(=O)c1ccc(Nc2nc(N)n(C(=O)c3c(F)cccc3F)n2)cc1
3. Nc1nc(Nc2ccc(S(=O)(=O)NC(=O)[C@@H](N)CO)cc2)nn1C(=O)c1c(F)cccc1F
4. Nc1nc(Nc2ccc(S(=O)(=O)NC(=O)CCCC(=O)O)cc2)nn1C(=O)c1c(F)cccc1F
Input line: With regard to IC50, arrange the entries in ascending order, please. # format: label list in the order the request specifies
Output line: 2, 1, 3, 4
(2: 0.05 µM, 1: 0.08 µM, 3: 0.14 µM, 4: 1.53 µM)

1. CCOC(=O)CCC(=O)NS(=O)(=O)c1ccc(Nc2nc(N)n(C(=O)c3c(F)cccc3F)n2)cc1
2. Nc1nc(Nc2ccc(S(=O)(=O)NC(=O)[C@@H](N)CC(=O)O)cc2)nn1C(=O)c1c(F)cccc1F
3. CN1CCN(CCC(=O)NS(=O)(=O)c2ccc(Nc3nc(N)n(C(=O)c4c(F)cccc4F)n3)cc2)CC1
4. Nc1nc(Nc2ccc(S(=O)(=O)NC(=O)[C@@H]3CCCN3)cc2)nn1C(=O)c1c(F)cccc1F
Input line: Descending sort on IC50 required. # format: label list in the order the request specifies
Output line: 3, 2, 1, 4

###

experiment: Standard Rat Pharmacokinetics (PK); type: in vivo; conditions: plasma; rat, IV/PO 3/30 mg/kg; Dose(IV)*AUC(oral)/Dose(oral)*AUC(IV)
Value Kind: bioavailability (%)

Input Smiles | Unit String | bioavailability
CCCC(=O)NS(=O)(=O)c1ccc(Nc2nc(N)n(C(=O)c3c(F)cccc3F)n2)cc1 | % | 0.41

1. CCCCC(=O)NS(=O)(=O)c1ccc(Nc2nc(N)n(C(=O)c3c(F)cccc3F)n2)cc1
2. CCOC(=O)CCC(=O)NS(=O)(=O)c1ccc(Nc2nc(N)n(C(=O)c3c(F)cccc3F)n2)cc1
3. COCCOCC(=O)NS(=O)(=O)c1ccc(Nc2nc(N)n(C(=O)c3c(F)cccc3F)n2)cc1
Input line: Descending sort on bioavailability required. # format: label list in the order the request specifies
Output line: 3, 1, 2
(3: 2%, 1: 0.4%, 2: 0.17%)
